Assignment: determine reported DC50 for the given compounds.
# Measured on: BTK (Homo sapiens, UniProt Q06187)
# Construct: endogenous in cells; host or cells: Ramos (ATCC CRL-1596)
# Sequence (Q06187 whole entry): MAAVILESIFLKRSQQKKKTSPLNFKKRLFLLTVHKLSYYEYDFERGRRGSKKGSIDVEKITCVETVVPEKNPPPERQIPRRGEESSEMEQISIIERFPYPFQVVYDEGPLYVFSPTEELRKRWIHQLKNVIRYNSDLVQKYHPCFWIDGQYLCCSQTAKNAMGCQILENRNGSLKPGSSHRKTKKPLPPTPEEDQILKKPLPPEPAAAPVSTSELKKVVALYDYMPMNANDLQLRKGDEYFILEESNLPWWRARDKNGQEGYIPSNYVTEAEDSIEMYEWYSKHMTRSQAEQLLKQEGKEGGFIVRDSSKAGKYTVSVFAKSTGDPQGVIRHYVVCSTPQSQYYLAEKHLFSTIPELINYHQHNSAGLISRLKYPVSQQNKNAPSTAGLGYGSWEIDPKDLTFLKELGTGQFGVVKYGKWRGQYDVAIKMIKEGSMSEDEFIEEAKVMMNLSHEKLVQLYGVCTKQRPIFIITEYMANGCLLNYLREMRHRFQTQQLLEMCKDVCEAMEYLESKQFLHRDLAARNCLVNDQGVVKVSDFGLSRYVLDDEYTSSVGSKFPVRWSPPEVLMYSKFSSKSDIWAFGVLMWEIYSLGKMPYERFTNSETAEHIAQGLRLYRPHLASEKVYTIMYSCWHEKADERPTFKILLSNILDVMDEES
# Run description: Cellular BTK HTRF Assay (BTK levels in Ramos cells)
# Format: cell-based
# Experimental setup: Ramos cells, 50,000 cells, incubated four hours at 37° C.; BTK levels by Cisbio Total-BTK HTRF relative to DMSO-treated cells

For the compound C[C@H]1CN(C(=O)CCNc2cccc3c2C(=O)N(C2CCC(=O)NC2=O)C3=O)CCN1c1ccc(Nc2cc(-c3ccnc(N4CCn5c(cc6c5CC(C)(C)C6)C4=O)c3CO)cn(C)c2=O)nc1 (some centres unmarked) [Compound 36] , what DC50 is on record? 10 to 1000 nM

For the compound Cn1cc(-c2ccnc(-n3ncc4cc(C(C)(C)C)cc(F)c4c3=O)c2CO)cc(Nc2cc3n(n2)CCN(C(=O)CN2CCN(CCCc4cccc5c4CN(C4CCC(=O)NC4=O)C5=O)CC2)C3)c1=O (centres unmarked) [Compound 16] , what DC50 is on record? 10 to 1000 nM

For the compound C[C@H]1CN(C(=O)CCOCCCc2cccc3c2CN(C2CCC(=O)NC2=O)C3=O)CCN1c1ccc(Nc2cc(-c3ccnc(N4CCn5c(cc6c5CC(C)(C)C6)C4=O)c3CO)cn(C)c2=O)nc1 (some centres unmarked) [Compound 43] , what DC50 is on record? 1 to 10 nM

For the compound CN[C@@H](C)C(=O)N[C@H](C(=O)N1C[C@@H](NC(=O)CCOCCOCCOCCC(=O)N2CCn3nc(Nc4cc(-c5ccnc(-n6ncc7cc(C(C)(C)C)cc(F)c7c6=O)c5CO)cn(C)c4=O)cc3C2)C[C@H]1C(=O)N[C@@H]1CCCc2ccccc21)C1CCCCC1 [Compound 5] , what DC50 is on record? 10 to 1000 nM

For the compound Cn1cc(-c2ccnc(-n3ncc4cc(C(C)(C)C)cc(F)c4c3=O)c2CO)cc(Nc2cc3n(n2)CCN(CCCCc2cccc4c2CN(C2CCC(=O)NC2=O)C4=O)C3)c1=O (centres unmarked) [Compound 18] , what DC50 is on record? 1 to 10 nM
